Listed here are molecules together with their documented EC50.
- TARGET_OR_TEST_SYSTEM: mGluR2 receptor (metabotropic glutamate receptor 2) (Homo sapiens, UniProt Q14416)
- Sequence (Q14416 19-872, species assumed): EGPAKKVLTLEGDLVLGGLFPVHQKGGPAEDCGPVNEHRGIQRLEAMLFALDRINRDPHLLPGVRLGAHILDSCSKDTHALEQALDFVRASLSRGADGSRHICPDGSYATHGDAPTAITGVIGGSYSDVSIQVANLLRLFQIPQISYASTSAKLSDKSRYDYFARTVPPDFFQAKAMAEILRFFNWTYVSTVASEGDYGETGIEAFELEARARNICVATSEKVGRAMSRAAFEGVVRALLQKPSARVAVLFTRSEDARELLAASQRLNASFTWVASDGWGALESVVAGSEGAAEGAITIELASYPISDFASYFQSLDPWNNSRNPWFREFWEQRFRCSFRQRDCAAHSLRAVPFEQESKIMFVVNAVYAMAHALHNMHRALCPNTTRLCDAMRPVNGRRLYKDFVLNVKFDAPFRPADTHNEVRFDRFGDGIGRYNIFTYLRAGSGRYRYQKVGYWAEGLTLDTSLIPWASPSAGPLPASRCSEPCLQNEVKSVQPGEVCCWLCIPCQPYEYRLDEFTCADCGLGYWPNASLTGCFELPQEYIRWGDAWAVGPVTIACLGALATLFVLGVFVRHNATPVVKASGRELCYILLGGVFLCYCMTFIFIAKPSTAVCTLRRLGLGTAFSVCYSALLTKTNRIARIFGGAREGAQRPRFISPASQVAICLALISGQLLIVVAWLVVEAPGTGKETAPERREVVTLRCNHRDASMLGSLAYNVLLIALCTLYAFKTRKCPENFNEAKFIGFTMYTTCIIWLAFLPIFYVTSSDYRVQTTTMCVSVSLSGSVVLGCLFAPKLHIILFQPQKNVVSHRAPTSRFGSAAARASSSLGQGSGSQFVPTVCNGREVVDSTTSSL
- ASSAY_INFO: mGluR2 potentiator screen (FLIPR, EC10-EC20 glutamate challenge);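 further: HEK cells stably expressing human mGluR2 with GL15 G protein, Fluo-4 calcium fluorescence read on FLIPR, compounds added before an EC10-EC20 glutamate challenge to detect potentiation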
- CONDITION_DETAILS: geometric mean; read-out: mGluR 2 EC50 (geometric mean)

C[C@@H]1CN(Cc2ccc(-c3ccc(F)cc3F)cc2F)C(=O)O1 :: < 28.4 nM
CC(C)Oc1ccc(-c2ccc(CN3C[C@@H](C)OC3=O)cc2)c(Cl)c1 :: < 15.4 nM

Attention now turns to another entry.
query: Reported EC50 for "COc1ccc(-c2ccc(CN3C[C@@H](C)OC3=O)cc2)c(F)c1F" : what is it?
result: < 17.2 nM

* * *

- TARGET_OR_TEST_SYSTEM: UniProt Q14416
- ASSAY_INFO: mGluR2 potentiator screen (FLIPR, EC10-EC20 glutamate challenge)
- CONDITION_DETAILS: geometric mean; read-out: mGluR 2 EC50 (geometric mean)
pEC50: −log10 of the molar value.
Listed here are compounds together with their documented pEC50.

COc1ccc(-c2ccc(CN3C[C@@H](C)OC3=O)cc2F)c(F)c1F :: > 7.22

query: Reported pEC50 for "C[C@@H]1CN(Cc2ccc(-c3ccc(Cl)cc3F)cc2)C(=O)O1" : what is it?
result: > 7.40

query: Reported pEC50 for CC1CN(Cc2ccc(OCCC(C)(C)C)cc2)C(=O)O1 (stereo not shown) : what is it?
result: > 7.83

query: Reported pEC50 for "CC(C)Oc1ccc(-c2ccc(CN3C[C@@H](C)OC3=O)cc2)cc1" : what is it?
result: > 7.39

From: patent US20090137577A1
